binders and their reported EC50 hGlucagon R (cAMP formation)
# tested on: human glucagon receptor (human, UniProt P47871 26-477)
# Sequence (P47871 26-477): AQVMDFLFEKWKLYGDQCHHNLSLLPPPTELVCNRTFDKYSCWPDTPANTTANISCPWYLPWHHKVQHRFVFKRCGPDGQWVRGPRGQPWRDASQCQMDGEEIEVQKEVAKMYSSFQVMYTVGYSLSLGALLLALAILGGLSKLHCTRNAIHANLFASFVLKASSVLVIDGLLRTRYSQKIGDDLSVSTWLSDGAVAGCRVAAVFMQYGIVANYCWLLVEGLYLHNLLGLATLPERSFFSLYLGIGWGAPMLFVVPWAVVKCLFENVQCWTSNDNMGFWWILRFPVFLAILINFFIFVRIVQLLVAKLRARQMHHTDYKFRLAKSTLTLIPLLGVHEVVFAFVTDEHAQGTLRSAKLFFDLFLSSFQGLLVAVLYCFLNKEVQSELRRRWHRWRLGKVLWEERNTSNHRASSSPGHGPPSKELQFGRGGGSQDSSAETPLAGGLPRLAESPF
# method description: cell-based or functional assay
Numbered stars: 1 amine (or outer) side, 2 acyl side, 3 side chain; on linkers, the order of the positions; unused ones are H or OH. Square brackets hold non-standard residues; d marks the D form. Side chains are listed from the residue outwards. Ends that are not written are not given here. * marks the point of attachment. γGlu = O=C(O)[C@H](CCC(=O)[*:2])N[*:1]; Palmitoyl = CCCCCCCCCCCCCCCC(=O)*; gAAA = not defined here; AEEA = NCCOCCOCC(=O)O; Aib = CC(C)(N)C(=O)O
observable: EC50 hGlucagon R (cAMP formation) (pM)

1. H[Aib]HGTFTSDLSKLK([γGlu-AEEA-gAAA-Palmitoyl])EEQRQKEFIEWLKA[dA]GHPS[Aib]KPPPK-NH2 (reading uncertain) [SEQ ID NO: 23] | 6.8
2. H[Aib]HGTFTSDLSKLK([γGlu-γGlu-Palmitoyl])EEQRQKEFIEWLKAGGPPS[Aib]KPPPK-NH2 [SEQ ID NO: 8] | 2
3. H[Aib]HGTFTSDLSKLK([γGlu-γGlu-Palmitoyl])EEQRQ[Aib]EFIEWLKAGGHPS[Aib]KPPPK-NH2 [SEQ ID NO: 12] | 2
4. H[Aib]HGTFTSDLSKLK([γGlu-AEEA-gAAA-Palmitoyl])EEQRQKEFIEWLKAGGHPS[Aib]KPPPK-NH2 (reading uncertain) [SEQ ID NO: 22] | 5.9
